Kindly state IC50 for each of the entries shown.
target_or_system: Beta-secretase 1 (Homo sapiens)
Sequence (P56817 whole entry): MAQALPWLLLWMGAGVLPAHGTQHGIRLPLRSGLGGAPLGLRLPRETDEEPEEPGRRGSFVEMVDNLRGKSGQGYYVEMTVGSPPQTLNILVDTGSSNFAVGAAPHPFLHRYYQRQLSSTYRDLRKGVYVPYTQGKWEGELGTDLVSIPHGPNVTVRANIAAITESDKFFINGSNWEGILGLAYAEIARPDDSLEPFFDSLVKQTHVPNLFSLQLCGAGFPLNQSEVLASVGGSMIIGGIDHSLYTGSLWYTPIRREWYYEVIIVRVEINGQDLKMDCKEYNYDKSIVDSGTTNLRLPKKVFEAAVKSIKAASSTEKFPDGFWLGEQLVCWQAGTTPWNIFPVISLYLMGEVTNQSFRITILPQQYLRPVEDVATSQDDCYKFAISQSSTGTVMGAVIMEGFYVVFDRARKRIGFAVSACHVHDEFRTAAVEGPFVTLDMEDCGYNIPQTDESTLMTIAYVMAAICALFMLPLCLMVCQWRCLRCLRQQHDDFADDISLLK
One number for each entry, in µM.

structure_notation: Nc1nc(Cc2ccc(-c3cccc4oc5ccccc5c34)cc2)cn1Cc1ccccc1Cl
observable: IC50
measured_result: 5.95

Consider the compound `Nc1nc(Cc2ccc(-c3ccc(C(F)(F)F)cc3)cc2)cn1Cc1cc(F)cc(F)c1` . State its measured IC50.
5.59

Data origin, for the record: ChEMBL document CHEMBL1932933
